Test: gradient 5% acetonitrile 3 min, to 50% in 2 min, to 85% in 15 min, held 3 min, 100 µL/min
Settings: column: Zorbax Extend-C18 2.1 x 50 mm; eluents: water / acetonitrile, 0.1% formic acid
REPORTED METRIC: RP-LC retention time (s)

Solved entries:
Cc1ccc(NC(=O)NC2CCN(c3ccccc3)C2=O)cc1Cl (stereo not given)    915
CC(C)Cn1cc(S(=O)(=O)N2CCN(c3cccc(Cl)c3)CC2)c2cccnc21    1250
CCn1ccc2sc(C)c(C(=O)N3CCN(c4ccc(OC)cc4)CC3)c2c1=O    714

P = COc1cc(OC)cc(C(=O)N2CCC3(CC2)N=C(c2ccc(Cl)cc2)NO3)c1
Q = O=C(CSc1ccc(N2CCCC(C(=O)NC3CC3)C2)nn1)NCc1cccs1 (stereo not given)
Name the one with the greater RP-LC retention time value, either P or Q as given. I would appreciate it if you answered with the label of your choice.
P
(P: 893 s, Q: 593 s)

###

Test: gradient 5% acetonitrile 3 min, to 50% in 2 min, to 85% in 15 min, held 3 min, 100 µL/min
Details: column: Zorbax Extend-C18 2.1 x 50 mm; eluents: water / acetonitrile, 0.1% formic acid
REPORTED METRIC: RP-LC retention time (s)

COC(=O)c1ccc(NC(=O)C2(C)Oc3cccnc3N(C(C)C)C2=O)cc1 (stereo not drawn)    991
Cc1nn(-c2ccccc2)c(C)c1S(=O)(=O)N1CCC(C(=O)Nc2cc(F)ccc2F)CC1    1000
CCOC(=O)N1CCN(C(=O)Cc2c(C)nn(-c3nc(-c4ccccc4)cs3)c2C)CC1    998

###

Test: gradient 5% acetonitrile 3 min, to 50% in 2 min, to 85% in 15 min, held 3 min, 100 µL/min
Conditions: column: Zorbax Extend-C18 2.1 x 50 mm; eluents: water / acetonitrile, 0.1% formic acid
REPORTED METRIC: RP-LC retention time (s)

COCc1c(C(=O)N2CCC3(CCC3O)CC2)noc1C (configuration not stated)    618
CC(C)N1CCC2(CC1)N=C(c1ccc(Br)cc1)CC(c1cc(Cl)ccc1O)N2 (configuration not stated)    711
N#CCN(c1ccc2c(c1)OCCO2)S(=O)(=O)c1ccc2nncn2c1    690
O=C(NCc1ccc2c(c1)OCO2)C1CCN(C(=O)c2ccccc2F)CC1    719
COC(=O)CS(=O)c1ccc(C(F)(F)F)cc1[N+](=O)[O-] (configuration not stated)    730
Cc1cc2c(N3CCCC(C(=O)N4CCN(c5ccccc5F)CC4)C3)nccc2s1 (configuration not stated)    755
COc1ccc(OC)c(C2CN(C(=O)c3ccc4c(c3)OCO4)CC2C(=O)N2CCCC2)c1 (configuration not stated)    723
C=CCNC(=O)CN1C(=O)C2CCCCN2c2ccc(S(=O)(=O)N(C)C)cc21 (configuration not stated)    774

a = O=C(O)C1c2ccccc2CC(=O)N1Cc1ccccc1 (configuration not stated)
b = Cc1cccc(NC(=O)CSc2cc(N3CCN(c4ccccc4F)CC3)ncn2)c1C
Between item a and item b , which reported RP-LC retention time is smaller? Reply briefly: the label of your chosen item.
a
(a: 723 s, b: 1130 s)

P = CS(=O)(=O)N1CCC(C(=O)Nc2nc3c(s2)COCC3)CC1
Q = Cc1cc(C)n(C(C[N+](=O)[O-])c2ccc(Cl)cc2Cl)n1 (configuration not stated)
// compare: P vs Q , metric RP-LC retention time, want the smaller Respond using the label that marks the chosen record.
P
(P: 604 s, Q: 1110 s)
